test: chemical genetic growth profiling, strain panel (AID 1159580);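 also: tested at 20 µM; growth read once vehicle control cultures reached saturation at 30 °C; 1 = growth at the plate median or of vehicle wells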; settings: S. cerevisiae deletion strains, growth OD, locus YNL307C, strain MCK1, stronger effect = lower value
The campaign covered roughly 5,500 compounds. About 2,000 (36%) were called active. About 18% were inconclusive and are not listed. The list shows a part of the results.
# if measured normalized growth < 1: yes  # else: no

CC(=O)Oc1ccc(O)cc1 | yes

Given CC(C)CCCC(C)[C@H]1CCC2C3C(=O)C=C4C[C@@H](O)CC[C@]4(C)C3CC[C@@]21C (stereo not given in full) , is recorded normalized growth strictly lower than 1?
no

* * *

Below, each entry is listed with its recorded normalized growth.
assay: chemical genetic growth profiling, strain panel (AID 1159580);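 also: tested at 20 µM; growth read once vehicle control cultures reached saturation at 30 °C; 1 = growth at the plate median or of vehicle wells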; conditions: S. cerevisiae deletion strains, growth OD, locus YHR087W, strain rtc3, stronger effect = lower value
The whole screen tested about 5,500 compounds, of which about 2,000 (36%) were called active. Not shown: some 18% with an inconclusive outcome. Some of the results follow.
Give a plain numeric answer without units written out.

N/C(=N/OC(=O)c1ccccc1)c1ccc(-c2csnn2)cc1 | 0.993
c1ccc(-c2csc(-c3ccncc3)n2)cc1 | 0.981
Cn1c(CSc2ccccc2)n[nH]c1=S | 0.982
O=C(O)CCCNCc1cccc2ccccc12 | 1.01
c1ccc(-c2nc(-c3cccs3)cs2)cc1 | 0.744
CCCc1cc(=O)oc2cc(OCC(=O)OCC)ccc12 | 0.963
OC(c1ccccc1)(c1ccccc1)c1ccncc1 | 1.02

Consider the additional compound presented here.
Tell me the measured normalized growth of NC(=S)CSc1ccccc1 , please.
1.03

* * *

experiment: chemical genetic growth profiling, strain panel (AID 1159580);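 also: tested at 20 µM; growth read once vehicle control cultures reached saturation at 30 °C; 1 = growth at the plate median or of vehicle wells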; details: S. cerevisiae deletion strains, growth OD, locus YMR078C, strain ctf18, stronger effect = lower value
Hit rate of the full screen: of about 5,500 compounds, about 2,000 (36%) were called active. Inconclusive results (about 18%) are left out. This is one part of the list.
Attribute: normalized growth
Number only, no unit.

// lookup normalized growth for COC(=O)c1c(OC)cc2c(c1C)Oc1c(Cl)c(OC(C)=O)c(Cl)c(C)c1C(=O)O2
1.01

Consider the molecule shown here: COc1ccc(C2Sc3ccccc3N(CCN(C)C)C(=O)C2OC(C)=O)cc1 (stereo unspecified) What is its recorded normalized growth?
1.04

# get_value(readout='normalized growth', item= COc1c(C)c2c(c(C)c1Cl)Oc1c(Cl)c(OC)c(Cl)c(C)c1C(=O)O2 )
1.02

Can you share its normalized growth? I mean this molecule: NC(Cn1ccc(=O)c(O)c1)C(=O)O (stereo unspecified)
0.982

Which normalized growth is reported for this molecule? NNCc1cccc(O)c1
1

I would be grateful if you could share the reported normalized growth for CC(CCC(=O)O)[C@H]1CCC2C3CC[C@@H]4CC(=O)CC[C@]4(C)C3C=C[C@@]21C (stereo partly specified) .
1.03

What value of normalized growth has been reported for the following molecule? COc1ccccc1OCC(O)CO (stereo unspecified)
0.99

Need normalized growth, item COC(=O)c1c(C)c2c(c(C)c1O)OC(=O)c1c(C)c(Cl)c(O)c(Cl)c1O2
1.01

Bench note: what normalized growth did CN(C)C(=O)Oc1cccc([N+](C)(C)C)c1 show?
0.984

Any idea what its normalized growth is? The molecule is CN(C)CCCN1c2ccccc2Sc2ccc(Cl)cc21
1.01

Fill blank: measured normalized growth of the molecule CC(=O)Oc1c(Cl)c(C)c2c(c1Cl)OC(=O)c1c(C)c(Cl)c(OC(C)=O)c(Cl)c1O2 is ____.
0.985

Where do the numbers come from? From PubChem BioAssay AID1159580.
